apparent KD of MS2 coat protein values, listed per item
tested on: MS2 coat protein; test: apparent KD of MS2 coat protein; designed switch direction (-1 OFF switch, 1 ON switch): 1; higher = weaker reporter binding; conditions: input ligand: FMN 200 uM

seq_string | apparent KD of MS2 coat protein (nM)
GCAGGGCCGGGCCCUGCAGACAUGAGGAUCACCCAUGUAACACAGGAUAUGACUGGGAUACCUGGUUAGAAGGGUGCGAAAGAA [Ustivetice] (Eterna round: R96, puzzle: Same State NG 3) | 299
ACAUGAGAGAUAGGAUAUCGUGUACCUACAUGUGACAUGAGGAUCACCCAUGUGGUAAGUAUGAGCGAGAAGGAUCAGAUAUGU [Equivalence 50 - Jieux - Same State NG 2] (Eterna round: R96, puzzle: Same State NG 2) | 24.6

====

system: K4 kissing-loop RNA reporter; assay: apparent KD of K4 kissing-loop reporter; higher = weaker reporter binding; details: Eterna round: R107; input ligand: tryptophan 2.4 mM

seq_string | study_system | apparent KD of K4 kissing-loop reporter
GCCGUACGCAUGGAUACCAGUCUUAGAGUGAUGUUCUAAUCGAUUGCGCCUGGAUCAAUGGACCCUUGGCAGCCAUGCGUACGGC | K4 kissing-loop RNA reporter | 112 nM
ACACUUUACGUAGGAUAUGCGACGAGUGAUGUUCGUCAGGCGGCUUUAGCUUAAUCAGGCCGCCUAGCAGAAGGACGGGCAGUGU [Zaretiesre] | K4 kissing-loop RNA reporter | 181 nM
GAGGCCAGACGGAGUGAUGUUUCGUAUGAUACCAGCAGCGAAAGCUGCCCUUGGCAGCAUGCCACGGCCUCGGCGGGAAACCGCC | K4 kissing-loop RNA reporter | 384 nM
AGUAAUGAGUGAUGUUCAAUUAGUAAGGAUACCAGUAAUUCAAAAUGCCCUUGGCAGCUUAACGCUACCAAUAGAUUAAUAAUGG [First try - Theophylline A] | K4 kissing-loop RNA reporter | 95.5 nM
AAUAAAAGAUGUUUAGGAAAGCAAAUGGAAGGAGCGUGCGAAAGCACAGGUAGGUCGCCAGUGAUGUUGGCACCUGAGCAUCAAA [#SwitchBubble 18 #K4Late] | K4 kissing-loop RNA reporter | 264 nM
AAAUCUUUCAGAAGGAGCGUGGAUUAUUCAUAUAUAUUUAUUACGAGUGAUGUUCGUAAUUCACAGGUAGGUCGCUGUUCAAUAA [JR_ExcArginiB_Sub005] | K4 kissing-loop RNA reporter | 102 nM
AUGUCUGAUAGCAGUGAUGUUGCUUCGGAUACCAGACGAGAUCAUGUCCCUUGGCAGCUGACACGGCACGUGCUAGGUUAGAUGA [whbob_Ex_Theo_A_th72] | K4 kissing-loop RNA reporter | 113 nM
ACGUCUUGUAAACUCGUGGUUUCGAUCGAUACCAGUAGCGAGAGUUACCCUUGGCAGCGACAUGAGUGAUGUUCAUGUACGAAGA [KL-XTheoA3] | K4 kissing-loop RNA reporter | 90.7 nM
AUUAAUUUCAGAGGAUAUCGUUAUUUUAUUUAAUUUAUUCAUUUAUGCAGUGAUGUUGCUAUUAUUCGAGAAGGCUGAUUUAUAA [JR_ExcFMNB_Sub006] | K4 kissing-loop RNA reporter | 35.3 nM
AAUGCGCAGGGAAGGAGCGCCGUCCAGUGAUGUUGGAGUUAAAUACCAGUGAUGUUGGUUAGGCAGGUAGGUCGCCCUAAAGCGC [Exclusion Arginine B GF 1] | K4 kissing-loop RNA reporter | 83.8 nM
GGUCCGCGGUCGGCCGCCACUGAACAAGACCAGUGAUGUUGGAUCUUCCAGUGCGUUGGCUUUAACAGGACCGGGACCGUGGAGC [Titia] | K4 kissing-loop RNA reporter | 164 nM
AGGCAAUAUGCGGCCGCCACUUUCAGUGAUGUUGAGACGCGGAAUGUUGUAUAAUAUCGCCACGAAAGGACCGGGCAAGGGAAAG [theeternabot_exclusion_KL_Trp_B_5] | K4 kissing-loop RNA reporter | 355 nM

====

tested on: MS2 coat protein; test: apparent KD of MS2 coat protein; designed switch direction (-1 OFF switch, 1 ON switch): -1; higher = weaker reporter binding; settings: Eterna round: R95; input ligand: microRNA oligo, concentration not stated
The threshold is inclusive: apparent KD of MS2 coat protein of exactly 0.04 µM counts as TRUE; values below receive FALSE.

seq_string | label_class
AAAAAGCGAGGAUAUGCAUAAGGACCCGGGCGGGAAGUCGGACAUGAGGAUCACCCAUGUAGAAGGCGCAAAAA [Exclss2-V] (puzzle: Exclusion 2) | FALSE
AAGGAGUGAGGAUAUGCGCGGGCACGCUCUAAAUAAGAAAGACAUGAGGAUCACCCAUGUAGAAGGCACAAUAA [Leedla] (puzzle: Exclusion 2) | FALSE
UCCAGACAUGAGGAUCACCCAUGUGAGGAUAUGAUGCGAUCGUCGAAAGACGAUAGCAUCAGAAGGCACGUAUG [Fiskers Ex 1 - 15] (puzzle: Exclusion 1) | FALSE
GGUACUAACACGAGAGUGUUAGUACAAUAAGCUUGUGUUACAUGAGGAUCACCCAUGUCCUCAUAAGCUCGUCUUAU [Mat - Sensor v3 - Turn-off var 2 - D57] (puzzle: Sensor v3, turn-off variant 2) | FALSE
UUUUAGCAAGGAUAUACAUUUUUUUUAUUAUCCUCAUUAUUACAUGAGGAUCACCCAUGUAGAAGGUGCAUUUU [My Design] (puzzle: Exclusion 2) | FALSE
CAGACACAUGAGGAUCACCCAUGUGAGGAUAUGCGUACGUUGUCCGUAGGCGACGUGCGCAGAAGGCACAAAGG [JL-ex1-3.09 Eli mod] (puzzle: Exclusion 1) | TRUE
UCGCUGCGAGGAUAUACAUGAGGAUCACCCAUGUACGGGUCCGGGUCUUAGUUGAUUGGUAGAAGGCGCAGUGA [JL Laongeedie mod 11] (puzzle: Exclusion 3) | TRUE
UCAUGUAUGUAGGAUAUCGAUGUCUUCGGACAUCGAGAAGGACGUACAUGAGGAUCACCCAUGUAACUUGCAUG [Exclusion 6 - B - 11:b] (puzzle: Exclusion 6) | FALSE
ACCUUACAUGAGGAUCACCCAUGUCAGGAUAUCUCGGGCGGCUGGAGACCAGCCGCCCAGAGAAGGGACGAGGA [Engeisbe] (puzzle: Exclusion 1) | FALSE
CCAUCCAGUGUGAGGAUAUGCUGGUCCUUGGAUCAGCAGAAGGCACAUGAGGAUCACCCAUGUGAAUAGGAUGG [Mat - Exclusion 4 - JL Mod - D85] (puzzle: Brourd's mod of Exclusion 4) | FALSE
UAUGCCUUUGUGAGGAUAUACUUUGUUUGGUCGUAGUAGAAGGCACAUGAGGAUCACCCAUGUAGAUUUUUGGU [JR_BME4_Sub012] (puzzle: Brourd's mod of Exclusion 4) | FALSE
GCGUGUGCCUAGGAUAUUGGGAAUAUGCAGAAACGAGAAGGAGGCACAUGAGGAUCACCCAUGUGAUGAAAAGA [Teesedri] (puzzle: Exclusion 6) | TRUE
AAGAAACAUGAGGAUCACCCAUGUGAGGAUAUGAGGAAGAAAAGAAAAGAAAGAAGACUCAGAAGGCACAAAGG [salish99-ex1_r3_073] (puzzle: Exclusion 1) | TRUE
GGUCGAGAACAGCUCCGCGCCGCCCUCGACCGCUCAUUUACAUGAGGAUCACCCAUGUUUUUUGCUUGUCUUGUUUC [Ceerar] (puzzle: Sensor v3, turn-off variant 2) | TRUE
AGUUGGCGAGGAUAUACAUGAGGAUCACCCAUGUGAAAUAGAAUAGUGAGGAAGAAAAGUAGAAGGCGCUGACA [Mat - Exclusion 3 - Mod of Salish D41] (puzzle: Exclusion 3) | TRUE
AAUUCACAUGAGGAUCACCCAUGUCAGGAUAUGGUUUCACGGGUUUCGGUGCGUGAGGCCAGAAGGGACAGCUA (puzzle: Exclusion 1) | TRUE
UCGGCGCGAGGAUAUGCGGCUGGUGCUUCGGGCCCUGGCGUACAUGAGGAUCACCCAUGUAGAAGGCGCGCCGC [Apr-15 SS2-41] (puzzle: Exclusion 2) | FALSE
UCUUAUUGCAAGGAUAUGCAAAUUAUUAUUAAUGCAGAAGGUGCUACAUGAGGAUCACCCAUGUUUCCGGGUUU [JR_E6_Sub042] (puzzle: Exclusion 6) | TRUE
GGUCCACAUGAGGAUCACCCAUGUUAGGAUAUCUCGCCCGAGUCGUUAUGGGCCGGGCAGAGAAGGAAUGUGAA [Redion] (puzzle: Exclusion 1) | FALSE

====

Below, each entry is listed with its recorded apparent KD of K4 kissing-loop reporter.
test system: K4 kissing-loop RNA reporter; test: apparent KD of K4 kissing-loop reporter; higher = weaker reporter binding; details: Eterna round: R107; input ligand: arginine 13.2 mM;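 further: bound reporter read as fluorescence of individual clusters on recovered sequencing chips by microscopy, with normalized cluster intensities fitted with a binding model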

seq_string | apparent KD of K4 kissing-loop reporter
AGGUCACCACUACAGUGAUGUUGUAGGGAGCAGGAUAUGCAGAAAUGCAGAAGGGCUCGCUCCCGGUGACCGAAUGAAACAUUCA [Omei KL FMN A SS A v6] | 258 nM
GGAUUGCCAGUGAUGUUGGCAUAAACUGAAGGAGCGCGUGAAAACGCAGGUAGGUCGCAGAACCUUGCCAACUAUUUUAUUUACC [Ex Arginine A K4 23] | 118 nM
UGUCAUUGGUCGGCCGCCACUUCGUGUGGAGUGAUGUUUUGUAGGUUGUGUUGAAAGGUAUGGUGAAGGACCGGGACCGAUGACU [FiskerMod 20 - Jieux - Same State - Tryptophan B] | 384 nM
AAGGCCACGAGAAGGAGCGUGUUGUGGAGUGAUGUUCCACUGUAGACCUAAGGUCUACAGGCACAGGUAGGUCGCUCGUGGUCAA [Omei KL Arginine B SS A v6] | 110 nM
AAAAUAACCCAGUGAUGUUGGUCUCCAGAUACCAGCGACGAAAGUCGCCCUUGGCAGCUGUGGACGUACAAAAUAAGUACGUCCU | 629 nM
AAGCAUUCUUCGGAAUGCAGACCCGCUGAGGAGGAUAUGACGAAAGUCAGAAGGCCUCAGUGAUGUUGAGGCCUCCUCAAUGGUC [Omei KL FMN A Exc A v1] | 135 nM
UGGGAUGUUAAAGGAUAUAGCAAGUGAUAUAAGAAAGUGAGUGAUGUUUAUGUAGGUGAUGAUAUGUUAGAAGGUUAACAAAACG [abcdefgh] | 158 nM
GCCGUACGCAUGGAUACCAGUCUUAGAGUGAUGUUCUAAUCGAUUGCGCCUGGAUCAAUGGACCCUUGGCAGCCAUGCGUACGGC | 97.3 nM
GCAUCCAUGGCAGGAUAUAGGUUCGUGGAGUGAUGUUCCAUAGCCCGAGUGAUGUUCGUUAUCCGCCUAGAAGGGCCAUGGAUGC [whbob_Ex_FMNB__2th213] | 192 nM
GACGGGUUCCUGCUCAAUCCGUCGCAUGAUCGAGGACCGGUACGGCCGCCACUCGAGGCCAUGCCGUACGAGUGAUGUUCGUGCG [Xeon] | 367 nM
GGUCCGCGGUCGGCCGCCACUGAACAAGACCAGUGAUGUUGGAUCUUCCAGUGCGUUGGCUUUAACAGGACCGGGACCGUGGAGC [Titia] | 132 nM
UAAGAGGACCACUGCGAGAGUCCUCGAAUACGAGGACCGGUACGGCCGCCACUCGAUAAUUUGCAGUGAUGUUGCAAGUAAGAAU [BrourdMod 6 - Jieux - Same State Tryptophan A] | 114 nM
